ATTRIBUTE_MEASURED: glass transition temperature (°C)

*Oc1c(F)c(F)c(Oc2c(F)c(F)c3c(c2F)C(=O)N(c2c(F)c(F)c(F)c(N4C(=O)c5c(F)c(*)c(F)c(F)c5C4=O)c2F)C3=O)c(F)c1F (repeat unit); 309.00
*c1ccc2c(c1)C(=O)N(c1ccc(Cc3ccc(N4C(=O)c5ccc(*)cc5C4=O)c(C)c3C)c(C)c1C)C2=O (repeat unit); 297.00
*c1ccc2c(c1)C(=O)N(c1ccc(-c3ccc(N4C(=O)c5ccc(C(*)(C(F)(F)F)C(F)(F)F)cc5C4=O)cc3Cl)c(Cl)c1)C2=O (repeat unit); 336.00
*Oc1cccc2c1C(=O)N(c1cccc(S(=O)(=O)c3cccc(N4C(=O)c5cccc(*)c5C4=O)c3)c1)C2=O (repeat unit); 241.00

Entry source: the PolyMetriX glass transition set
